# ASSAY TARGET: T1, lactate dehydrogenase (LDH)
# T1 construct: Coated at 500 ng/well as non-specific target; also called LDH polypeptide
# PROTOCOL TEXT: phage ELISA
MEASUREMENT TYPE: LDH (OD)

>  <BINDER>
DQRVVGSGWFERLRNWYDRAAAAGAPVPYPDPLEPRP [DGI-2-20R-4-G99]

>  <MEASURED NUMBER>
1

$$$$
>  <BINDER>
VWRDWVNGTVGLRNREKPGVAAAGAPVPYPDPLEPRP [DGI-2-20R-3-A5]

>  <MEASURED NUMBER>
1.1

$$$$
>  <BINDER>
QMSRVAFSPGESWRRWVEGVAAAGAPVPYPDPLEPRP [DGI-2-20R-3-A2]

>  <MEASURED NUMBER>
1

$$$$
